# TGI listing for each entry below
- Tested on: COLO 205 colon
- measurement.description: NCI tumour cell line growth inhibition, 48 h

Recorded TGI, per entry:
compound	value.reported
C[C@@H]1C[C@]2(C[C@@H](C)[C@H]3C(C[C@@]4(C)CCC[C@@H]5C6=C[C@H](CCC34C)OC6=CC(=O)OC5(C)C)O2)OC1=O (stereo partly drawn)	> 51.5 µM
N=S(=O)(c1ccccc1)c1ccccc1[N+](=O)[O-] (stereo not drawn)	> 100 µM
Cc1ccccc1S(=O)(=O)N1[C@H](c2ccc(Cl)cc2)C(C(=O)N[C@@H](Cc2ccccc2)C(N)=O)=C[C@@H]1C(C)(C)C	14.3 µM
OCCCCC#Cc1ccccc1C#Cc1ccccc1F	31.3 µM
CN(C)CCOC(=O)c1ccc(N)cc1	> 100 µM

Input CCOC(=O)CCc1c(C(=O)OCC)[nH]c(/C=C2\NC(=O)C(C)=C2CC)c1C . Output TGI: > 100 µM

Looking up O=C(/C=C/c1ccc(-c2ccccc2)cc1)NCc1ccc(C(=O)NCCc2c[nH]c3ccccc23)cc1 , I see its TGI listed as > 100 µM

Briefly, TGI measured for CC(=O)NC1C(OCc2ccccc2)OC(CO)C(O)C1OCC(=O)NC(C)C(=O)NC(CCC(=O)NCCCCCNc1c2ccccc2nc2cccc([N+](=O)[O-])c12)C(N)=O (stereo not drawn) : < 0.0001 µM

---

- Test system: CCRF-CEM leukemia
- measurement.description: NCI tumour cell line growth inhibition, 48 h
Parameter: TGI. Scope: all listed entries.

Solved cases below.
compound	assayed.system	TGI
CCOC(=O)C1=C(C)C(C(=O)OC)/C(=C/c2cccc3cccnc23)C1=O (stereo not given)	CCRF-CEM leukemia	> 10 µM
COc1ccc(C[C@H](N)C(=O)N2C[C@H](CO)C[C@H](n3ccc(=O)[nH]c3=O)C2)cc1	CCRF-CEM leukemia	> 100 µM
O=C(Nc1ncc(Cc2ccccc2)s1)c1ccc2c(c1)OCCCO2	CCRF-CEM leukemia	> 100 µM
CSc1nc(NC2OCC(O)C(O)C2O)c(N)c(=O)n1C (stereo not given)	CCRF-CEM leukemia	> 100 µM
NC1CCCCC1N.O=C([O-])P(=O)([O-])[O-].[Na+].[Pt+4] (stereo not given)	CCRF-CEM leukemia	> 100 µM

Please turn your attention to the following entry.
The compound C=CCN(c1cc(OCc2ccccc2)c(NC(C)=O)cc1[N+](=O)[O-])S(C)(=O)=O , when measured on CCRF-CEM leukemia, yielded TGI of > 100 µM

---

- Test system: SK-MEL-5 melanoma
- measurement.description: NCI tumour cell line growth inhibition, 48 h
Recorded measurements of log10 TGI, one per entry
Recorded TGI (log10, µM)

Observe how each entry below is paired with its result.
compound	log10 TGI
COc1ccc(/C=C2\CC3C4CC=C5C[C@@H](O)CC[C@]5(C)C4CC[C@]3(C)\C2=N\O)cc1OC (stereo not given in full)	1.65
CC(=Nc1c2ccccc2nc2ccccc12)N(C)C	1.44
N#CC(C#N)=Cc1c(O)ccc2ccccc12	1.42
C[C@@H]1COCCN1c1nc(-c2cnc(N)cc2C(F)F)nc(N2[C@H](C)COC[C@@H]2C)n1	0.31
COc1ccc(/C=C(\C(=C/c2ccc(OC)cc2)[N+](=O)[O-])[N+](=O)[O-])cc1	1.20

Form field log10 TGI for item O=c1[nH]cnc2c1nnn2C1OC(CO)C(O)C1O (stereo not given) on SK-MEL-5 melanoma: 1.48

COC(=O)c1nc(-c2ccc3c(n2)C(=O)C(N)=C(OC)C3=O)c(N)c(-c2ccc(OC)c(OC)c2O)c1C on SK-MEL-5 melanoma gives log10 TGI = 0.29

---

- Tested on: HCT-15 colon
- measurement.description: NCI tumour cell line growth inhibition, 48 h
# Lookup of reported TGI keyed by entry

compound	value.reported
O=c1[nH]c2cc3cccnc3c(Cl)c2nc1C(F)(F)F	> 100 µM
O=S1(=O)N(Cc2ccccc2)[C@@H](Cc2ccccc2)C2O[C@H]2[C@H](Cc2ccccc2)N1Cc1ccccc1 (stereo not given in full)	> 7.5 µM
OCC(Cn1cncn1)(c1ccc(F)cc1F)n1cncn1 (stereo not given)	> 100 µM

Lab note: measured TGI of CC(=O)OCc1cc(=O)n(C)c2c3c4c(cc12)c(C)cc(=O)n4CO3 was 37.8 µM

Data point: NS(=O)(=O)c1ccc(C2C3=C(CCCC3=O)OC3=C2C(=O)c2ccccc2C3=O)cc1 (stereo not given) ; TGI = 3.46 µM

---

- System: RXF 393 renal
- measurement.description: NCI tumour cell line growth inhibition, 48 h
readout.name: TGI (µM)
Only the number, expressed in µM, is required.

chemical.smiles	TGI / µM
COc1ccc(/C=C(\C(=C/c2ccc(OC)cc2)[N+](=O)[O-])[N+](=O)[O-])cc1	4.33

Lab note: C=C(CC(=O)Nc1ccc(C(=O)OC)o1)C(=O)OC gave TGI of 33.3

// CCOC(=O)CCc1c(C(=O)OCC)[nH]c(/C=C2\NC(=O)C(C)=C2CC)c1C : TGI value = 49

Value of measured TGI for the entry O=C(CN1CCCCC1)c1ccc2c(c1)Sc1ccccc1O2 : 21

Data point: COC(=O)Nc1nc2ccc(Oc3ccc(NC(=O)Nc4cccc(Br)c4)cc3)cc2[nH]1 ; TGI = 11.9

---

- Test system: KM12 colon
- measurement.description: NCI tumour cell line growth inhibition, 48 h
Reported TGI by item:

molecule	value.reported
C1#Cc2ccccc2OCCOc2ccccc2C#Cc2ccccc2OCCOc2ccccc21	> 100 µM

Simply: Cc1ccc(-n2c(O)c3c(N)n[nH]c3c(C#N)c2=O)cc1 , KM12 colon, TGI = > 100 µM

For the molecule CC(C)COC(=O)N1N=NC2C3OC(CC3=O)C21 (centres undefined) , the measured TGI on KM12 colon was > 100 µM

Record Nc1ccc(-c2nc3ccccc3[nH]2)c(O)c1 / KM12 colon, TGI recorded as 57.4 µM

---

Measured TGI of individual entries
- Test system: UO-31 renal
- measurement.description: NCI tumour cell line growth inhibition, 48 h
Expressed in µM, but write only the number.

Quick note, TGI for CC(=O)O[C@H]1CC[C@@]2(C)C(CC[C@]3(C)C2CC[C@]2(C)Oc4c(C)cc(O)cc4C[C@@H]23)C1(C)C (stereo partly specified) landed at 14.3

Sure, the documented TGI for S=C1C(=Nc2ccccc2)N(c2ccccc2)/C(=N\c2ccccn2)N1c1ccccc1 is 26.1

Form: molecule = COc1cc2c(c(OC)c1OC)-c1ccc(NNC(=S)N(Cc3cccc(C[N+](Cc4cccc(CNC56CC7CC(CC(C7)C5)C6)c4)(Cc4cccc(CNC56CC7CC(CC(C7)C5)C6)c4)Cc4cccc(CN(C(=S)NNc5ccc6c(cc5=O)[C@@H](NC(C)=O)CCc5cc(OC)c(OC)c(OC)c5-6)C56CC7CC(CC(C7)C5)C6)c4)c3)C34CC5CC(CC(C5)C3)C4)c(=O)cc1[C@@H](NC(C)=O)CC2 (stereo partly specified) ; TGI = 7.2

The molecule listed as Cc1[nH]c(C(=O)Nc2ccc(C(=O)N3CCNCC3)cc2OC(C)C)c(Cl)c1Cl shows TGI equal to 2.85

---

- Tested on: HOP-62 NSCLC
- measurement.description: NCI tumour cell line growth inhibition, 48 h; in the data active means GI50 below about 0.43 µM; inactive means the rest
Give one outcome, nothing more. List: active, inactive

molecule	category
O=S1(=O)N(Cc2ccccc2)[C@@H](Cc2ccccc2)C2O[C@H]2[C@H](Cc2ccccc2)N1Cc1ccccc1 (stereo partly specified)	inactive
O=C(Nc1ncc(Cc2ccccc2)s1)c1ccc2c(c1)OCCCO2	inactive
CCCCCCOc1ccc(/C=N/NC(N)=S)cc1	inactive

query: In this assay, the call recorded for O=C1c2ccccc2-c2c1c1ccc([N+](=O)[O-])cc1c(=O)n2CCNCCCNCCn1c2c(c3ccc([N+](=O)[O-])cc3c1=O)C(=O)c1ccccc1-2 was what?
result: inactive

query: What did the test return for CCOC(=O)c1cc2c(n1Cc1cc(OC)cc(OC)c1)-c1oncc1CCC2 ?
result: active

query: Lab log entry: NC1CCCCC1N.O=C([O-])P(=O)([O-])[O-].[Na+].[Pt+4] (stereo unspecified) — outcome as called in the assay?
result: inactive

---

- Tested on: K-562 leukemia
- measurement.description: NCI tumour cell line growth inhibition, 48 h
Consider the following molecules and their measured TGI readings.

molecule	TGI
CCOCC(=O)N[C@H]1CCc2cc(OC)c(OC)c(OC)c2-c2ccc(SC)c(=O)cc21	12.5 µM
CCON=C1C(C)(C)C(C)(C)C(C)(C)C1(C)C	> 100 µM

Measured on K-562 leukemia, Nc1ccc(-c2nc3cc(F)ccc3s2)cc1I has a documented TGI of > 100 µM

---

- Tested on: TK-10 renal
- measurement.description: NCI tumour cell line growth inhibition, 48 h
readout.name: TGI

Below are worked cases with known answers.
molecule	value.reported
COc1ccccc1/C=C1\CCC(CNc2ccc(Cl)cc2)C1=O (stereo unspecified)	18.6 µM
O=c1[nH]cnc2c1nnn2C1OC(CO)C(O)C1O (stereo unspecified)	> 30.2 µM
CCOC(=O)/C(C#N)=C/c1ccc(CO)o1	> 100 µM
O=C1CCC2(CC1CCSc1ccccc1)OCCO2 (stereo unspecified)	> 100 µM
CCOC(=O)C1=C(C)C(C(=O)OC)/C(=C/c2cccc3cccnc23)C1=O (stereo unspecified)	> 10 µM

Briefly, TGI measured for c1cc(C[S+]2CCCC2)ccc1C[S+]1CCCC1 : > 100 µM

Record summary for N=S(=O)(c1ccccc1)c1ccccc1[N+](=O)[O-] (stereo unspecified) : reported TGI = > 100 µM

Per the record, O=c1c2ccccc2n2nnc3ccc(NCCCNCCNCCCNc4ccc5nnn6c7ccccc7c(=O)c4c56)c1c32 has TGI of 19 µM

Entry Cc1ccc(S(=O)(=O)NC(=O)NCCC(=O)O)cc1 — recorded TGI = > 100 µM

Measured TGI of C[C@]12CC/C(=N\N)C[C@@H]1CC[C@@H]1[C@@H]2CC[C@]2(C)/C(=N/N)CC[C@@H]12 : > 100 µM

Just so you know, measured TGI for CCCCCCCCCCCCCCCC(=O)OCC1OC(n2cnc3c(=S)nc(N)[nH]c32)C(OC(=O)CCCCCCCCCCCCCCC)C1OC(=O)CCCCCCCCCCCCCCC (stereo unspecified) came out at > 50 µM

Reported TGI for Cc1cc(Nc2ccc(N=Nc3ccc(O)c4ncccc34)cc2)nc(C)n1 was 50.2 µM

src = PubChem BioAssay (NCI)
